# Target Entity: SMARCA4 (Homo sapiens, UniProt P51532)
# Construct: SMARCA2 and SMARCA4 protein degradation in MV4-11 cells; endogenous in cells; host or cells: MV4-11
# Sequence (P51532 whole entry): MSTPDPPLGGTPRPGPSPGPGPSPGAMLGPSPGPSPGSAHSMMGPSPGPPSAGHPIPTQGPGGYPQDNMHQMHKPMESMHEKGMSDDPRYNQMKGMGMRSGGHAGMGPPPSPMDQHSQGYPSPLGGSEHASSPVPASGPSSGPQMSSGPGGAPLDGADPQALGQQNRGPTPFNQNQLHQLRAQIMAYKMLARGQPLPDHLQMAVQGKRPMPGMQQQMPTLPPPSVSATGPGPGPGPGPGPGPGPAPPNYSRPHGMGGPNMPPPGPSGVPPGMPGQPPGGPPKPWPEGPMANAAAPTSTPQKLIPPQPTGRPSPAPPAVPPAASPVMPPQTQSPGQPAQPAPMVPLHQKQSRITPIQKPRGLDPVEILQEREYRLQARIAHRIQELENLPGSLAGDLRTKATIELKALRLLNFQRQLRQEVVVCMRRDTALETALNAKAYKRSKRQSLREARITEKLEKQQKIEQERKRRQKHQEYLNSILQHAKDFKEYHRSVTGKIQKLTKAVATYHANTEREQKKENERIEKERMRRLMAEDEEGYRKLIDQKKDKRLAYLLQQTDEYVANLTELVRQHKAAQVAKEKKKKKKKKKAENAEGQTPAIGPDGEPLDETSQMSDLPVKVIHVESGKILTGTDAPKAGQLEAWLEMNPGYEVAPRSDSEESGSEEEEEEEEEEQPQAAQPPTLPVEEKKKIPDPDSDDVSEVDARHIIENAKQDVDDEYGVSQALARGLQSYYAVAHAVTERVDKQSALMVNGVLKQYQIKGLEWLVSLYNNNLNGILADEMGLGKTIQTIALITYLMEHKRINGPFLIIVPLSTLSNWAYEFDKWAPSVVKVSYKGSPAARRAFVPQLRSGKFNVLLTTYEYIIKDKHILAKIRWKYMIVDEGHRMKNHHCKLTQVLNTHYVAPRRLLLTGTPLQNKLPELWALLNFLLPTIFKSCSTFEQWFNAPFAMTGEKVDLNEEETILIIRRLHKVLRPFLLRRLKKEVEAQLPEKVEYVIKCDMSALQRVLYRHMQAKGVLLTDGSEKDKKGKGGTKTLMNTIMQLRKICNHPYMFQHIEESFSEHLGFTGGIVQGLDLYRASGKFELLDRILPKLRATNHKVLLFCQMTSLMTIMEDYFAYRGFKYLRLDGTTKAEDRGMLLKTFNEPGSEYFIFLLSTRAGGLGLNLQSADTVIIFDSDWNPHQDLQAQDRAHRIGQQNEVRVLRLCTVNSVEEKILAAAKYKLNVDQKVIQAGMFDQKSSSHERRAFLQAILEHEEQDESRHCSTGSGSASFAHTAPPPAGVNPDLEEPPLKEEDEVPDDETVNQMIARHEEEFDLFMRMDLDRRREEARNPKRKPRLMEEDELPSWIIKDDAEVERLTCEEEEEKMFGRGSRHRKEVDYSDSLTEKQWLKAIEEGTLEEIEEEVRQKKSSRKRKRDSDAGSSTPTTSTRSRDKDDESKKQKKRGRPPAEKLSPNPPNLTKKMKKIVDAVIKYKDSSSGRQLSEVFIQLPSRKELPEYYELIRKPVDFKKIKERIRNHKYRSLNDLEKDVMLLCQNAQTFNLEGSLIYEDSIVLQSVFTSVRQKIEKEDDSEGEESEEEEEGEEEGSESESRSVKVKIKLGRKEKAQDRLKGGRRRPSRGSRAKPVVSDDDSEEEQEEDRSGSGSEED
# Assay Overview: SMARCA4 Western blot MV4-11 degradation
# Format: cell-based
# Setup Conditions: MV4-11 cells, 24 h; read-out: SMARCA4 MSD MV411 degradation 24 h: Mean external-Abs DC50
Metric Name: DC50

Compound	Result
Cn1nccc1-c1ccc(CNC(=O)[C@@H]2C[C@@H](O)CN2C(=O)[C@@H](NC(=O)[C@H]2CC[C@H](c3cnc(N4C5CCC4CN(c4cc(-c6ccccc6O)nnc4N)C5)nc3)CC2)C(C)(C)C)cc1	< 100 nM
Cc1ncsc1-c1ccc([C@H](C)NC(=O)[C@@H]2C[C@@H](O)CN2C(=O)[C@@H](NC(=O)[C@H]2CC3(C2)C[C@H](N2CCC(c4ccc(N5C6CCC5CN(c5cc(-c7ccccc7O)nnc5N)C6)cc4)CC2)C3)C(C)(C)C)cn1 (single isomer, unassigned) [I-5]	> 1000 nM
Cc1ncsc1-c1ccc(CNC(=O)[C@@H]2C[C@@H](O)CN2C(=O)[C@@H](NC(=O)N2CC3(CC(N4CCC(c5cnc(N6C7CCC6CN(c6cc(-c8ccccc8O)nnc6N)C7)nc5)CC4)C3)C2)C(C)(C)C)cc1	100 to 500 nM
Cc1ncsc1-c1ccc(CNC(=O)[C@@H]2C[C@H](O)CN2C(=O)[C@@H](NC(=O)[C@H]2CC3(C2)C[C@H](N2CCC(c4cnc(N5C6CCC5CN(c5cc(-c7ccccc7O)nnc5N)C6)nc4)CC2)C3)C(C)(C)C)cc1 (stereo partly shown) [I-79]	> 1000 nM
